test system: senescent IMR90 ER:RAS cells (4-OHT-induced); assay: Nuclei count (Hoechst, high content imaging) senolytic assay, oncogene-induced senescence (OIS) model, senescent cells; type: cell-based, human; conditions: Homo sapiens, IMR-90, 72 h, Senescent, log (dose) [M] -6.66, 72 h, mean n=3 (Fig 3C); read-out: Mean % Cell Survival
Recorded measurements of viability at 0.2188 µM, one per entry
// return numeric value only (unit: %, not printed)

Known viability at 0.2188 µM results, listed for orientation:
- MOLECULE: "CO[C@H]1C[C@@H]2CC[C@@H](C)[C@@](O)(O2)C(=O)C(=O)N2CCCC[C@H]2C(=O)O[C@H]([C@H](C)C[C@@H]2CC[C@@H](O)[C@H](OC)C2)CC(=O)[C@H](C)/C=C(\\C)[C@@H](O)[C@@H](OC)C(=O)[C@H](C)C[C@H](C)/C=C/C=C/C=C/1C [Rapamycin, rapamycin, reference compound]"
  viability at 0.2188 µM / %: 97.8
- MOLECULE: "Cc1c(-c2c(F)cc(C(N)=O)c3[nH]c4c(c23)CC[C@H](C(C)(C)O)C4)cccc1-n1c(=O)c2cccc(F)c2n(C)c1=O"
  viability at 0.2188 µM / %: 100

Now turn to the next molecule.
Item COc1cc(O)c2c(=O)cc(-c3ccc(OC)c(-c4c(O)cc(O)c5c(=O)cc(-c6ccc(O)cc6)oc45)c3)oc2c1 has what recorded viability at 0.2188 µM?
95.6

----------
system: non-senescent control IMR90 ER:RAS cells; test: Nuclei count (Hoechst, high content imaging) senolytic assay, OIS model, non-senescent control cells; format: cell-based, human; details: Homo sapiens, IMR-90, 72 h, Control, log (dose) [M] -8, 72 h, mean n=3 (Fig 3C); read-out: Mean % Cell Survival
Recorded measurements of viability at 0.01 µM, one per entry

- COMPOUND: "Cc1c(-c2c(F)cc(C(N)=O)c3[nH]c4c(c23)CC[C@H](C(C)(C)O)C4)cccc1-n1c(=O)c2cccc(F)c2n(C)c1=O"
  SYSTEM_UNDER_TEST: "non-senescent control IMR90 ER:RAS cells"
  viability at 0.01 µM: "104%"
- COMPOUND: "O=c1c(O)c(-c2ccc(O)cc2)oc2c(O)c(O)cc(O)c12"
  SYSTEM_UNDER_TEST: "non-senescent control IMR90 ER:RAS cells"
  viability at 0.01 µM: "107%"
- COMPOUND: "Cc1cnc(C(=O)N[C@H]2CCCCC/C=C\\[C@@H]3C[C@@]3(C(=O)NS(=O)(=O)C3CC3)NC(=O)[C@@H]3C[C@@H](Oc4nc5ccccc5c5ccccc45)CN3C2=O)cn1 [Paritaprevir, paritaprevir, reference compound]"
  SYSTEM_UNDER_TEST: "non-senescent control IMR90 ER:RAS cells"
  viability at 0.01 µM: "101%"

Item CO[C@H]1C[C@@H]2CC[C@@H](C)[C@@](O)(O2)C(=O)C(=O)N2CCCC[C@H]2C(=O)O[C@H]([C@H](C)C[C@@H]2CC[C@@H](OP(C)(C)=O)[C@H](OC)C2)CC(=O)[C@H](C)/C=C(\C)[C@@H](O)[C@@H](OC)C(=O)[C@H](C)C[C@H](C)/C=C/C=C/C=C/1C [Ridaforolimus, ridaforolimus, reference compound] has what recorded viability at 0.01 µM?
92.5%

Item CO[C@H]1C[C@@H]2CC[C@@H](C)[C@@](O)(O2)C(=O)C(=O)N2CCCC[C@H]2C(=O)O[C@H]([C@H](C)C[C@@H]2CC[C@@H](OCCO)[C@H](OC)C2)CC(=O)[C@H](C)/C=C(\C)[C@@H](O)[C@@H](OC)C(=O)[C@H](C)C[C@H](C)/C=C/C=C/C=C/1C [Everolimus, everolimus, reference compound] has what recorded viability at 0.01 µM?
104%
